# testSystem: HsDYRK1A (Homo sapiens, UniProt Q13627)
Binary label based on IC50 with cut-off 4 µM: below gives yes (1), not below gives no (0).

## Input Does N[C@H]1CC[C@@H](n2cc(COc3cccc4cnc(Nc5cccc(Cl)c5)nc34)nn2)CC1 [16a] have IC50 strictly under 4 µM?
## Output yes (1)

## Input Does N[C@H]1CC[C@H](n2cc(COc3cccc4cnc(Nc5cc(Cl)cc(Cl)c5)nc34)nn2)CC1 [19b] have IC50 strictly under 4 µM?
## Output no (0)

## Input Does N[C@H]1CC[C@@H](n2cc(COc3cccc4cnc(Nc5cc(Cl)cc(Cl)c5)nc34)nn2)CC1 [16b] have IC50 strictly under 4 µM?
## Output yes (1)

## Input Does N[C@H]1CC[C@H](n2cc(COc3cccc4cnc(Nc5cccc(Cl)c5)nc34)nn2)CC1 [19a] have IC50 strictly under 4 µM?
## Output yes (1)

## Input Does Cc1ccc(-n2cc(COc3cccc4cnc(Nc5cc(Cl)cc(Cl)c5)nc34)nn2)c([N+](=O)[O-])c1 [7b] have IC50 strictly under 4 µM?
## Output no (0)
